Give inhibition at 10 µM for every item shown.
Biological target: VEGFR-2 (Homo sapiens, UniProt P35968)
Construct: purchased Bio Science Corporation (BPS), San Diego, CA, USA
Sequence (P35968 20-1356): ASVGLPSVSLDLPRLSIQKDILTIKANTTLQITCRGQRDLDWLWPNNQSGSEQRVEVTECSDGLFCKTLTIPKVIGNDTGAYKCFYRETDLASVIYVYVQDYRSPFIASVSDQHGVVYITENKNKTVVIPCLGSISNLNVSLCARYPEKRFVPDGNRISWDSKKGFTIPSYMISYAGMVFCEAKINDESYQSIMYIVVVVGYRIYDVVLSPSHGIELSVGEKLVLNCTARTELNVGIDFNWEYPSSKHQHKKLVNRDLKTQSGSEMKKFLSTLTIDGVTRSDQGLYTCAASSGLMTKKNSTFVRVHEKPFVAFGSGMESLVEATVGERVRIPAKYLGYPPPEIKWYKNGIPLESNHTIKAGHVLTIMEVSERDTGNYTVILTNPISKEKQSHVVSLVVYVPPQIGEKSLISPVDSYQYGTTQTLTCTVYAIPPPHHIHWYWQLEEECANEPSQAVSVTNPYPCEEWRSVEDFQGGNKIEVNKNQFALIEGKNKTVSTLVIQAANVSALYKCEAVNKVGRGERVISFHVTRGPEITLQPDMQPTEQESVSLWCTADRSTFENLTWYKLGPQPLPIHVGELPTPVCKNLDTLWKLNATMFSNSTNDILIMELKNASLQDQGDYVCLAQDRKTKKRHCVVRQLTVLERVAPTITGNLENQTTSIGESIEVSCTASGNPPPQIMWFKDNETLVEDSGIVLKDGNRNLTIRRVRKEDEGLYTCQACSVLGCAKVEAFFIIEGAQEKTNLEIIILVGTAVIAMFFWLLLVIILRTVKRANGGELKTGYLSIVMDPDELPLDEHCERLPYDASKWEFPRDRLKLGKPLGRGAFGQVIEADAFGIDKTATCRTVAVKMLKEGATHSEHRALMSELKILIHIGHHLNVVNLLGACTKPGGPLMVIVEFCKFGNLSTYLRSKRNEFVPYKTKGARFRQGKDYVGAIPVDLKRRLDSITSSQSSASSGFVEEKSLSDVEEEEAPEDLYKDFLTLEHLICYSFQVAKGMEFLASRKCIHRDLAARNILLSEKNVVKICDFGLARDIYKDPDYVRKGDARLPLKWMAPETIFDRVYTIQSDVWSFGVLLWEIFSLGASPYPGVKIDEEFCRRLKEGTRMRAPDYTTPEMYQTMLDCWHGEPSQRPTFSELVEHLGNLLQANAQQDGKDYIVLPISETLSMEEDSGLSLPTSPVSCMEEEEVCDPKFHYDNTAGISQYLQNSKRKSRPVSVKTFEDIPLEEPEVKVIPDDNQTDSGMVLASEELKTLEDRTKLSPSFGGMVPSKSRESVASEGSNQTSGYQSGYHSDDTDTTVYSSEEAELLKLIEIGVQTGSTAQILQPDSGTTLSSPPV
Assay: In vitro VEGFR-2 inhibition assay (Kinase-Glo Plus luminescence)
Type: biochemical
Settings: single concentration of 10 µM; read-out: % of VEGFR-2 Inhibition
Method: In an attempt to investigate the possible mechanism of action of the synthesized compounds based on structural similarity with sorafenib, all of them were tested for VEGFR-2 inhibitory activity at Bio Science Corporation (BPS, San Diego, CA, USA). The assay was performed using the Kinase-Glo Plus luminescence kinase assay kit (Promega, San Diego, CA, USA). It measures kinase activity by quantitating the amount of ATP remaining in solution following a kinase reaction. […]. […]

Entry under review: Cc1ccc(S(=O)(=O)Nc2ccc(Nc3nc4ccccc4nc3C)cc2)cc1 [IXa] . Reported inhibition at 10 µM? 3%

Lookup Cc1ccc(S(=O)(=O)Nc2ccc(Nc3nc4ccccc4nc3Cl)cc2)cc1 [XVIIIa] 4%

Lookup O=C(Nc1ccc(Nc2nc3ccccc3nc2Cl)cc1)c1ccccc1 [XVIa] 8%

How about this compound: O=C(Nc1ccc(Cl)cc1)Nc1ccc(Nc2nc3ccccc3nc2Cl)cc1 [XVIIc] 6%

Also check Cc1ccc(C(=O)Nc2ccc(Nc3nc4ccccc4nc3Cl)cc2)cc1 [XVId] 3%
